Ref: patent US12503438B2

Target: AXL (Homo sapiens)
Construct: endogenous in cells
Sequence (P30530 26-894): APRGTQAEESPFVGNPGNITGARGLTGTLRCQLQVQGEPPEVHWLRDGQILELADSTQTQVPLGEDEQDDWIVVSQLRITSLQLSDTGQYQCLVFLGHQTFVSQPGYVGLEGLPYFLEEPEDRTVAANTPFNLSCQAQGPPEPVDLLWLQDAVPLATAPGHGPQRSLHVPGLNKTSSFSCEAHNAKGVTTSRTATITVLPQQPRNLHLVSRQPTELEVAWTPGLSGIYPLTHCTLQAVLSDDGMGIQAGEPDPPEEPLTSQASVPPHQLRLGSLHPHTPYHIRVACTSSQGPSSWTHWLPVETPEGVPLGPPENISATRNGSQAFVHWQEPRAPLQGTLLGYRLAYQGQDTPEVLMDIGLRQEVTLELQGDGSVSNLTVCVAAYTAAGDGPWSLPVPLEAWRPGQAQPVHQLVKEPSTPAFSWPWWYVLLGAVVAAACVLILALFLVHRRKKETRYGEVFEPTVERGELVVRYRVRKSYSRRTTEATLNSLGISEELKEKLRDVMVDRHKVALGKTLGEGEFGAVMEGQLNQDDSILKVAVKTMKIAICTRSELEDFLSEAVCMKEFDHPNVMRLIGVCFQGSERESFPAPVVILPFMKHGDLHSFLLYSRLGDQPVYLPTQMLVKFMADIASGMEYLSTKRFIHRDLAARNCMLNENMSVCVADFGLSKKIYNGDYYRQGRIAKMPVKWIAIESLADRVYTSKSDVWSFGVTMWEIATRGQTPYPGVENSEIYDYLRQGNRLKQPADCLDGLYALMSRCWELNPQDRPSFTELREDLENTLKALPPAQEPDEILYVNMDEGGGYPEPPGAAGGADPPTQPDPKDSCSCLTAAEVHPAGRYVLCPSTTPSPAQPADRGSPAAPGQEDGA
Experiment: AXL autophosphorylation ELISA in A-172 cells
Conditions: cellular activity, Gas6-stimulated, phospho-AXL ELISA
Experimental: A-172 glioblastoma cells (ATCC #CRL-1620) were seeded at 2.5×10^5 cells/well onto 24-well plates (Greiner #662165), in DMEM (Thermo Fisher #11995-040) containing 10% FBS (Thermo Fisher #26140-079), 1% MEM NEAA (Thermo Fisher #11140-050), 1% GlutaMax (Thermo Fisher #35050-061) and 1% Penicillin Streptomycin (Thermo Fisher #15140-122). […] IC50 values were calculated by nonlinear regression analysis using a 4-parameter logistic curve fit in ActivityBase XE (IDBS).
pIC50: −log10 of the molar value.
A collection of compounds and their measured pIC50

Guide cases for pIC50, answers given:
IN: Consider the compound Cn1cc(-c2ccc3c(Oc4ccc(NC(=O)C5(C(=O)Nc6ccc(F)cc6)CC5)cc4)ccnc3c2)ccc1=O [Compound 119] . State its measured pIC50.
OUT: ≥ 8.00

IN: Give pIC50 for CC(C)Oc1ccc(-c2ccc3c(Oc4ccc(NC(=O)C5(C(=O)Nc6ccc(F)cc6)CC5)cc4)ccnc3c2)cn1 [Compound 50]
OUT: 6.52 to 7.00

IN: Answer with reported pIC50 of O=C(Nc1ccc(F)cc1)C1(C(=O)Nc2ccc(Oc3ccnc4cc(-c5cc6n(n5)CCC6)ccc34)cc2)CC1 [Compound 124]
OUT: 7.00 to 8.00

IN: Quote pIC50 reported for Nc1ccc(-c2ccc3c(Oc4ccc(NC(=O)C5(C(=O)Nc6ccc(F)cc6)CC5)cc4)ccnc3c2)cn1 [Compound 38] please.
OUT: 7.00 to 8.00

IN: For O=C(Nc1ccc(F)cc1)C1(C(=O)Nc2ccc(Oc3ccnc4cc(-c5cncnc5)ccc34)cc2)CC1 [Compound 27] , write its pIC50.
OUT: 7.00 to 8.00

Others:
IN: Identify measured pIC50 associated with CCn1cc(-c2ccc3c(Oc4ccc(NC(=O)C5(C(=O)Nc6ccc(F)cc6)CC5)cc4)ccnc3c2)cn1 [Compound 20]
OUT: ≥ 8.00

IN: Please report pIC50 for the following compound: CC(C)(C)n1cc(-c2ccc3c(Oc4ccc(NC(=O)C5(C(=O)Nc6ccc(F)cc6)CC5)cc4)ccnc3c2)cn1 [Compound 23]
OUT: 7.00 to 8.00

IN: Give recorded pIC50. C[Si](C)(C)C#Cc1ccc2c(Oc3ccc(NC(=O)C4(C(=O)Nc5ccc(F)cc5)CC4)cc3)ccnc2c1 [Compound 63]
OUT: < 6.52

IN: In one line, give reported pIC50 of the entry Nc1cc(-c2ccc3c(Oc4ccc(NC(=O)C5(C(=O)Nc6ccc(F)cc6)CC5)cc4)ccnc3c2)ccn1 [Compound 97] .
OUT: 7.00 to 8.00

IN: Give me measured pIC50, please, for this compound: O=C(Nc1ccc(F)cc1)C1(C(=O)Nc2ccc(Oc3ccnc4cc(-c5ncc[nH]5)ccc34)cc2)CC1 [Compound 74]
OUT: 7.00 to 8.00

IN: Return pIC50 for the following compound: O=C(Nc1ccc(F)cc1)C1(C(=O)Nc2ccc(Oc3ccnc4cc(-c5cncs5)ccc34)cc2)CC1 [Compound 116]
OUT: 7.00 to 8.00

IN: In one line, give reported pIC50 of the entry O=C(Nc1ccc(F)cc1)C1(C(=O)Nc2ccc(Oc3ccnc4cc(-c5ccc[n+]([O-])c5)ccc34)cc2)CC1 [Compound 109] .
OUT: ≥ 8.00

IN: Let me know recorded pIC50 for O=C(Nc1ccc(F)cc1)C1(C(=O)Nc2ccc(Oc3ccnc4cc(-c5cn[nH]c5)ccc34)cc2)CC1 [Compound 67] , thanks.
OUT: ≥ 8.00

IN: Using known records, supply pIC50 for Cn1ccnc1-c1ccc2c(Oc3ccc(NC(=O)C4(C(=O)Nc5ccc(F)cc5)CC4)cc3)ccnc2c1 [Compound 75]
OUT: 7.00 to 8.00

IN: Quote pIC50 reported for Cc1cc2c(Oc3cc(Cl)c(NC(=O)C4(C(=O)Nc5ccc(F)cc5)CC4)cc3F)ccnc2cc1-c1cnn(C)c1 [Compound 112] please.
OUT: 7.00 to 8.00

* * *

biological target: AXL (Homo sapiens); construct: endogenous in cells; host or cells: A-172 glioblastoma cells (ATCC #CRL-1620); assay: AXL autophosphorylation ELISA in A-172 cells; type: cell-based; details: cellular activity, Gas6-stimulated, phospho-AXL ELISA
# IC50 listing for each entry below

Below: 8 molecules and their reported IC50.
IN: Determine its reported IC50: Nc1n[nH]cc1-c1ccc2c(Oc3ccc(NC(=O)C4(C(=O)Nc5ccc(F)cc5)CC4)cc3)ccnc2c1 [Compound 90]
OUT: 10 to 100 nM

IN: Supply reported IC50 belonging to this molecule: O=C(Nc1ccc(F)cc1)C1(C(=O)Nc2cc(F)c(Oc3ccnc4cc(-c5cccnc5)ccc34)cc2F)CC1 [Compound 115]
OUT: ≤ 10 nM

IN: Specify reported IC50 for the molecule shown: O=C(Nc1ccc(F)cc1)C1(C(=O)Nc2ccc(Oc3ccnc4cc(-c5cnn(C6CC6)c5)ccc34)cc2)CC1 [Compound 22]
OUT: 10 to 100 nM

IN: Give a short answer stating reported IC50 for O=C(Nc1ccc(F)cc1)C1(C(=O)Nc2ccc(Oc3ccnc4cc(-c5ccc(C6CC6)nc5)ccc34)cc2)CC1 [Compound 43] .
OUT: 100 to 300 nM

IN: Report IC50, nothing else, for this molecule: Cc1cc(F)cc(C)c1NC(=O)C1(C(=O)Nc2ccc(Oc3ccnc4cc(-c5cnn(C)c5)ccc34)cc2)CC1 [Compound 82]
OUT: 10 to 100 nM

IN: In one line, give reported IC50 of the entry O=C(Nc1ccc(F)cc1)C1(C(=O)Nc2ccc(Oc3ccnc4cc(-c5cnn(C6COC6)c5)ccc34)cc2)CC1 [Compound 24] .
OUT: ≤ 10 nM

IN: # return recorded IC50 for entry Cc1ccn(-c2ccc3c(Oc4ccc(NC(=O)C5(C(=O)Nc6ccc(F)cc6)CC5)cc4)ccnc3c2)n1 [Compound 91]
OUT: 100 to 300 nM

IN: Report measured IC50; entry is O=C(Nc1ccc(F)cc1)C1(C(=O)Nc2ccc(Oc3ccnc4cc(-c5cnn(CC(F)(F)F)c5)ccc34)cc2)CC1 [Compound 16]
OUT: 10 to 100 nM

// below: IC50 requested for another molecule
IN: Retrieve IC50 measured for CS(=O)(=O)n1cc(-c2ccc3c(Oc4ccc(NC(=O)C5(C(=O)Nc6ccc(F)cc6)CC5)cc4)ccnc3c2)cn1 [Compound 79] and print it.
OUT: ≤ 10 nM

* * *

biological target: Human Mer (Homo sapiens); construct: Human Mer (residues R557-E882 with H628Q and R794A, 0.7 nM); purchased Eurofins Pharma Discovery Services UK Limited (KinaseProfiler service); test: Human Mer kinase assay (33P-phosphoryl transfer radiometric, KinaseProfiler); conditions: biochemical activity; 10 μM ATP
Sequence (Q12866 557-882 limits assumed): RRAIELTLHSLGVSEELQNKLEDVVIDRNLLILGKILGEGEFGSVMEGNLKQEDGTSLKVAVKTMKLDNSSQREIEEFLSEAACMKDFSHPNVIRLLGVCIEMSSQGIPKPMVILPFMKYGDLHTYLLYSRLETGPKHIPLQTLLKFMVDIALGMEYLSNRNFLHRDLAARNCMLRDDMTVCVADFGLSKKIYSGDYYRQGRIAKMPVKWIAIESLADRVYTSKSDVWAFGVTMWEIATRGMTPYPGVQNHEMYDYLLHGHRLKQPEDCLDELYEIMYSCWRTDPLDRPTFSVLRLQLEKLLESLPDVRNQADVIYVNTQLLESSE
Measured IC50 values are reported for all entries that follow.

Known results for compounds:
IN: Please respond with reported IC50 (system Human Mer (Homo sapiens)) for `COCCn1cc(-c2ccc3c(Oc4ccc(NC(=O)C5(C(=O)Nc6ccc(F)cc6)CC5)cc4)ccnc3c2)cn1` .
OUT: ≤ 10 nM

IN: # assay system Human Mer (Homo sapiens): give IC50 of `Cn1cnc(-c2ccc3c(Oc4ccc(NC(=O)C5(C(=O)Nc6ccc(F)cc6)CC5)cc4)ccnc3c2)c1`
OUT: ≤ 10 nM

IN: State IC50 on Human Mer (Homo sapiens). Entry: `Cn1cc(-c2ccc3c(Oc4ccc(NC(=O)C5(C(=O)Nc6ccc(F)cc6)CC5)cc4)ccnc3c2)cn1`
OUT: ≤ 10 nM

New cases:
IN: Look up Human Mer (Homo sapiens) data: IC50 of `O=C(Nc1ccc(F)cc1)C1(C(=O)Nc2ccc(Oc3ccnc4cc(-c5ccn(C(F)F)n5)ccc34)cc2)CC1` , then report it.
OUT: ≤ 10 nM

IN: Provide Human Mer (Homo sapiens) IC50 reading for `O=C(Nc1ccc(F)cc1)C1(C(=O)Nc2ccc(Oc3ccnc4cc(-c5cnc[nH]5)ccc34)cc2)CC1` .
OUT: ≤ 10 nM

* * *

molecular target: UniProtKB Q12866; assay: Mer autophosphorylation ELISA in transient transfected 293A cells; settings: cellular activity; MERTK-transfected 293A cells, phospho-Mer ELISA
Metric: IC50

Below, each entry is followed by its recorded IC50 result.
IN: Note IC50 for the compound shown: O=C(Nc1ccc(F)cc1)C1(C(=O)Nc2ccc(Oc3ccnc4cc(-c5cnn(C6CC6)c5)ccc34)cc2)CC1 [Compound 22]
OUT: ≤ 10 nM

IN: Complete the entry with IC50 for CN1CCN(c2cc(-c3ccc4c(Oc5ccc(NC(=O)C6(C(=O)Nc7ccc(F)cc7)CC6)cc5)ccnc4c3)ccn2)CC1 [Compound 111]
OUT: 10 to 100 nM

IN: Respond only with IC50 recorded for Cc1cc2c(Oc3cc(Cl)c(NC(=O)C4(C(=O)Nc5ccc(F)cc5)CC4)cc3F)ccnc2cc1-c1cnn(C)c1 [Compound 112]
OUT: 10 to 100 nM

IN: Supply reported IC50 belonging to this compound: Cn1ccc(-c2ccc3c(Oc4ccc(NC(=O)C5(C(=O)Nc6ccc(F)cc6)CC5)cc4)ccnc3c2)n1 [Compound 17]
OUT: 10 to 100 nM

IN: Specify measured IC50 for O=C(Nc1ccc(F)cc1)C1(C(=O)Nc2ccc(Oc3ccnc4cc(-c5ccncc5)ccc34)cc2)CC1 [Compound 26] .
OUT: 10 to 100 nM

IN: Provide IC50 value for the following compound: CC(=O)N1CCC(n2cc(-c3ccc4c(Oc5ccc(NC(=O)C6(C(=O)Nc7ccc(F)cc7)CC6)cc5)ccnc4c3)cn2)CC1 [Compound 62]
OUT: ≤ 10 nM

New cases:
IN: Using known records, supply IC50 for O=C(Nc1ccc(F)cc1)C1(C(=O)Nc2ccc(Oc3ccnc4cc(-c5cnn(CCF)c5)ccc34)cc2)CC1 [Compound 14]
OUT: ≤ 10 nM

IN: Determine from records and report IC50 for Cc1cc(-c2ccc3c(Oc4ccc(NC(=O)C5(C(=O)Nc6ccc(F)cc6)CC5)cc4)ccnc3c2)nn1C [Compound 101]
OUT: 10 to 100 nM

IN: Given O=C(Nc1ccc(F)cc1)C1(C(=O)Nc2ccc(Oc3ccnc4cc(-c5ccnnc5)ccc34)cc2)CC1 [Compound 28] , respond with its IC50.
OUT: 10 to 100 nM

IN: Quickly give me recorded IC50 for O=C(Nc1ccc(F)cc1)C1(C(=O)Nc2ccc(Oc3ccnc4cc(-c5cnn(CF)c5)ccc34)cc2)CC1 [Compound 94]
OUT: 10 to 100 nM

IN: Please give the documented IC50 of O=C(Nc1ccc(F)cc1)C1(C(=O)Nc2ccc(Oc3ccnc4cc(-c5cn[nH]c5)ccc34)cc2)CC1 [Compound 67]
OUT: ≤ 10 nM

IN: For the compound Cn1ncc(-c2ccc3c(Oc4ccc(NC(=O)C5(C(=O)Nc6ccc(F)cc6)CC5)cc4)ccnc3c2)n1 [Compound 86] , give its reported IC50.
OUT: 10 to 100 nM

IN: Tell me measured IC50 for O=C(Nc1ccc(F)cc1)C1(C(=O)Nc2ccc(Oc3ccnc4cc(-c5ncco5)ccc34)cc2)CC1 [Compound 66] please.
OUT: 10 to 100 nM

IN: Provide only the value of recorded IC50 for Nc1n[nH]cc1-c1ccc2c(Oc3ccc(NC(=O)C4(C(=O)Nc5ccc(F)cc5)CC4)cc3)ccnc2c1 [Compound 90]
OUT: 10 to 100 nM

IN: Return the recorded IC50 value; entry: Cc1ccn(-c2ccc3c(Oc4ccc(NC(=O)C5(C(=O)Nc6ccc(F)cc6)CC5)cc4)ccnc3c2)n1 [Compound 91]
OUT: 100 to 300 nM

IN: Give reported IC50 value for O=C(Nc1ccc(F)cc1)C1(C(=O)Nc2ccc(Oc3ccnc4cc(-c5ccc[n+]([O-])c5)ccc34)cc2)CC1 [Compound 109]
OUT: 10 to 100 nM

IN: State its IC50 for this compound: Cc1cc2c(Oc3ccc(NC(=O)C4(C(=O)Nc5ccc(F)cc5)CC4)cc3)ccnc2cc1-c1ccn(C)n1 [Compound 108]
OUT: 100 to 300 nM
